Target: Glutamine synthetase, chloroplastic (Zea mays)
Assay: Inhibition of Zea mays cv. Jeff (maize) leaf glutamine synthetase using L-glutamate as substrate assessed as inorganic phosphate production after 20 min by malachite green assay relative to control
just bin them by IC50: c1: < 30 µM; c2: ≥ 30 µM and < 3000 µM; c3: ≥ 3000 µM

Kindly state the category for this molecule: "O=P(O)(O)C(Nc1ccc(Cl)cc1)P(=O)(O)O" c1

Kindly state the category for this molecule: O=P(O)(O)C(O)c1ccc(Cl)cc1Cl (stereo unspecified) c3

Kindly state the category for this molecule: NC(c1ccc(Cl)cc1Cl)P(=O)(O)O (stereo unspecified) c2

====

Target: Glutamine synthetase, chloroplastic (Zea mays, UniProt P25462)
Assay: Un-competitive inhibition of Zea mays cv. Jeff (maize) leaf glutamine synthetase using ATP as substrate Lineweaver-Burk plot analysis
Measured Ki by item
Respond with the bare value in µM.

>>> experimental_value("O=P(O)(O)C(Nc1cc(Cl)cc(Cl)c1)P(=O)(O)O")
6.4

For the record "Cc1cc(C)cc(NC(P(=O)(O)O)P(=O)(O)O)c1" , what value of Ki is listed for Glutamine synthetase, chloroplastic (Zea mays, UniProt P25462)? 55

====

Measured inhibition by item
Target: Glutamine synthetase, chloroplastic (Zea mays) (UniProt P25462)
Assay: Inhibition of Zea mays cv. Jeff (maize) leaf glutamine synthetase using L-glutamate as substrate assessed as inorganic phosphate production at 1 mM after 20 min by malachite green assay relative to control
Respond with the bare value in %.

Here are 2 compounds together with their reported answers.
>>> experimental_value("NC(c1cccc(F)c1)P(=O)(O)O (centres undefined)")
7.9
>>> experimental_value("NC(c1ccccc1F)P(=O)(O)O (centres undefined)")
26.7

Which inhibition is reported for this compound? "O=P(O)(O)C(Nc1cc(Cl)cc(Cl)c1)P(=O)(O)O" 86.3

Which inhibition is reported for this compound? NC(c1ccc(Cl)cc1Cl)P(=O)(O)O (centres undefined) 40.7

Which inhibition is reported for this compound? "O=P(O)(O)C(Nc1c(Cl)cccc1Cl)P(=O)(O)O" 81.1

Which inhibition is reported for this compound? O=P(O)(O)C(O)c1ccccc1Cl (centres undefined) 27

Which inhibition is reported for this compound? "O=P(O)(O)C(Nc1ccc(Cl)c(Cl)c1)P(=O)(O)O" 73.8

====

Molecular target: Glutamine synthetase, chloroplastic (Zea mays) (UniProt P25462)
Test: Inhibition of Zea mays cv. Jeff (maize) leaf glutamine synthetase using L-glutamate as substrate assessed as inorganic phosphate production at 1 mM after 20 min by malachite green assay relative to control
just bin them by inhibition: band 1 (below 30%), band 2 (30% to below 70%), band 3 (70% or more)

Below are worked cases with known answers.
>>> label("O=P(O)(O)C(O)c1ccc(Cl)cc1Cl (stereo not given)")
"band 2"
>>> label("O=P(O)(O)C(O)c1ccc(Cl)c(Cl)c1 (stereo not given)")
"band 1"
>>> label("O=P(O)(O)C(O)c1cccc(Cl)c1 (stereo not given)")
"band 1"
>>> label("O=P(O)(O)C(O)c1cccc(Cl)c1Cl (stereo not given)")
"band 2"
>>> label("O=P(O)(O)C(Nc1ccc(Cl)cc1)P(=O)(O)O")
"band 3"

Kindly state the category for this compound: NC(c1cccc(Cl)c1Cl)P(=O)(O)O (stereo not given) band 2

Kindly state the category for this compound: "Cc1cc(C)cc(NC(P(=O)(O)O)P(=O)(O)O)c1" band 2

====

Biological target: Glutamine synthetase, chloroplastic (Zea mays, UniProt P25462)
Sequence (P25462 whole entry): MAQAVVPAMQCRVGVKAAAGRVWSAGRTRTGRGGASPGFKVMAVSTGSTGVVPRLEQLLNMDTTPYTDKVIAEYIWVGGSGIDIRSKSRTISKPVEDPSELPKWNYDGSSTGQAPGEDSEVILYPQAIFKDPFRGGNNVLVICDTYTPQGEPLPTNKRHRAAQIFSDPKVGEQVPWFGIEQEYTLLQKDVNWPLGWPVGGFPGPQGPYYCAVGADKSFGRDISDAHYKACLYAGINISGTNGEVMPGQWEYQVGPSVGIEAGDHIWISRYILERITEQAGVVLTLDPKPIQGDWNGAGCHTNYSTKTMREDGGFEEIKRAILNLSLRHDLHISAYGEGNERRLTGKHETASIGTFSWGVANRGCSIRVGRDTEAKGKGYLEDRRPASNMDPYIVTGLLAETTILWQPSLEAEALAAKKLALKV
Assay: Inhibition of Zea mays cv. Jeff (maize) leaf glutamine synthetase using L-glutamate as substrate assessed as inorganic phosphate production after 20 min by malachite green assay relative to control
Quantity: IC50 (µM)
Respond with the bare value in µM.

Here are 3 compounds together with their reported answers.
>>> experimental_value("O=P(O)(O)C(Nc1ccc(Cl)c(Cl)c1)P(=O)(O)O")
31.9
>>> experimental_value("O=P(O)(O)C(Nc1c(Cl)cccc1Cl)P(=O)(O)O")
15
>>> experimental_value("O=P(O)(O)C(O)c1cccc(Cl)c1Cl (stereo not drawn)")
1160

Which IC50 is reported for this compound? "O=P(O)(O)C(Nc1cc(Cl)cc(Cl)c1)P(=O)(O)O" 7.6

Which IC50 is reported for this compound? "O=P(O)(O)C(Nc1ccc(Cl)cc1Cl)P(=O)(O)O" 21.2

Which IC50 is reported for this compound? NC(c1ccccc1F)P(=O)(O)O (stereo not drawn) 10100

====

Molecular target: Glutamine synthetase, chloroplastic (Zea mays) (UniProt P25462)
Assay: Inhibition of Zea mays cv. Jeff (maize) leaf glutamine synthetase using L-glutamate as substrate assessed as inorganic phosphate production at 1 mM after 20 min by malachite green assay relative to control
Measured inhibition by item
Respond with the bare value in %.

Here are 6 molecules together with their reported answers.
>>> experimental_value("COc1cccc(C(N)P(=O)(O)O)c1OC (configuration not stated)")
-1.2
>>> experimental_value("NC(c1ccccc1Br)P(=O)(O)O (configuration not stated)")
42.5
>>> experimental_value("NC(c1cccc(Cl)c1)P(=O)(O)O (configuration not stated)")
8.1
>>> experimental_value("O=P(O)(O)C(O)c1ccc(Cl)cc1 (configuration not stated)")
8.3
>>> experimental_value("O=P(O)(O)C(Nc1cccc(Cl)c1Cl)P(=O)(O)O")
84.9
>>> experimental_value("NC(c1ccccc1Cl)P(=O)(O)O (configuration not stated)")
36.3

Which inhibition is reported for this molecule? O=P(O)(O)C(O)c1c(Cl)cccc1Cl (configuration not stated) 10.7

====

Biological target: Glutamine synthetase, chloroplastic (Zea mays)
Experiment: Inhibition of Zea mays cv. Jeff (maize) leaf glutamine synthetase using L-glutamate as substrate assessed as inorganic phosphate production at 1 mM after 20 min by malachite green assay relative to control
Quantity: inhibition (%)
Respond with the bare value in %.

Here are 2 compounds together with their reported answers.
>>> experimental_value("O=P(O)(O)C(Nc1cc(Cl)ccc1Cl)P(=O)(O)O")
79.1
>>> experimental_value("O=P(O)(O)C(Nc1ccc(Cl)cc1Cl)P(=O)(O)O")
79.7

Which inhibition is reported for this compound? NC(c1ccccc1)P(=O)(O)O (stereo not drawn) 13.6

====

Target: Glutamine synthetase, chloroplastic (Zea mays)
Experiment: Inhibition of Zea mays cv. Jeff (maize) leaf glutamine synthetase using L-glutamate as substrate assessed as inorganic phosphate production after 20 min by malachite green assay relative to control
Measured log10 IC50 by item
Values below are the log10 of the recorded IC50, with µM as the unit.

Here are 6 molecules together with their reported answers.
>>> experimental_value("O=P(O)(O)C(Nc1cccc(Cl)c1Cl)P(=O)(O)O")
1.11
>>> experimental_value("NC(c1cccc(Cl)c1Cl)P(=O)(O)O (configuration not stated)")
3.02
>>> experimental_value("NC(c1ccccc1Br)P(=O)(O)O (configuration not stated)")
3.61
>>> experimental_value("Cc1cc(C)cc(NC(P(=O)(O)O)P(=O)(O)O)c1")
1.75
>>> experimental_value("O=P(O)(O)C(Nc1cc(Cl)ccc1Cl)P(=O)(O)O")
1.59
>>> experimental_value("NC(c1ccccc1Cl)P(=O)(O)O (configuration not stated)")
3.76

Which log10 IC50 is reported for this molecule? O=P(O)(O)C(O)c1ccccc1Cl (configuration not stated) 3.82
